Cited source: ChEMBL document CHEMBL1909046

Experiment: DRUGMATRIX: Tumor Necrosis Factor (TNF), Non-Selective radioligand binding (ligand: [125I] TNF-alpha)
Format: cell membranes, Membrane
Conditions: u-937; Not Active = under 50% inhibition at 10 µM
QUANTITY KIND: IC50

C#C[C@]1(OC(C)=O)CC[C@H]2[C@@H]3CCC4=CC(=O)CC[C@@H]4[C@H]3CC[C@@]21C [NORETHINDRONE ACETATE] | Not Active
CCN[C@@H]1C[C@H](N)[C@@H](O[C@H]2OC(CN)=CC[C@H]2N)[C@H](O)[C@H]1O[C@H]1OC[C@](C)(O)[C@H](NC)[C@H]1O | Not Active
O=C(N[C@H](CO)[C@H](O)c1ccc([N+](=O)[O-])cc1)C(Cl)Cl | Not Active
CC(C)Cc1ccc(C(C)C(=O)O)cc1 (stereo not given) | Not Active
COc1cc(NS(=O)(=O)c2ccc(N)cc2)nc(OC)n1 | Not Active

## Task Find the recorded IC50 belonging to "[H]/N=C(/N)N[C@H]1[C@H](O)[C@@H](O)[C@H](O[C@@H]2O[C@@H](C)[C@](O)(C=O)[C@H]2O[C@@H]2O[C@@H](CO)[C@H](O)[C@@H](O)[C@@H]2NC)[C@@H](N/C(N)=N\[H])[C@@H]1O" and report it.
## Result Not Active

## Task // query: "C[C@]12CC[C@@H]3c4ccc(O)cc4CC[C@H]3[C@@H]1CC[C@@H]2O"
## Result Not Active

## Task // query: "Nc1c(CC(=O)O)cccc1C(=O)c1ccc(Br)cc1"
## Result Not Active

## Task // query: C[C@](O)(CS(=O)(=O)c1ccc(F)cc1)C(=O)Nc1ccc(C#N)c(C(F)(F)F)c1 [(R)-BICALUTAMIDE]
## Result Not Active

## Task // query: COc1cccc2c1C(=O)c1c(O)c3c(c(O)c1C2=O)C[C@@](O)(C(=O)CO)C[C@@H]3O[C@H]1C[C@H](N)[C@@H](O)[C@H](C)O1 [EPIRUBICIN]
## Result Not Active

----------
Target: Prostaglandin G/H synthase 1 (Homo sapiens, UniProt P23219); also: in other assays of this panel Not Active means under 50% inhibition at 10 µM;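 also: inhibition of COX-1 enzyme activity, with arachidonic acid supplied as substrate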
Sequence (P23219 whole entry): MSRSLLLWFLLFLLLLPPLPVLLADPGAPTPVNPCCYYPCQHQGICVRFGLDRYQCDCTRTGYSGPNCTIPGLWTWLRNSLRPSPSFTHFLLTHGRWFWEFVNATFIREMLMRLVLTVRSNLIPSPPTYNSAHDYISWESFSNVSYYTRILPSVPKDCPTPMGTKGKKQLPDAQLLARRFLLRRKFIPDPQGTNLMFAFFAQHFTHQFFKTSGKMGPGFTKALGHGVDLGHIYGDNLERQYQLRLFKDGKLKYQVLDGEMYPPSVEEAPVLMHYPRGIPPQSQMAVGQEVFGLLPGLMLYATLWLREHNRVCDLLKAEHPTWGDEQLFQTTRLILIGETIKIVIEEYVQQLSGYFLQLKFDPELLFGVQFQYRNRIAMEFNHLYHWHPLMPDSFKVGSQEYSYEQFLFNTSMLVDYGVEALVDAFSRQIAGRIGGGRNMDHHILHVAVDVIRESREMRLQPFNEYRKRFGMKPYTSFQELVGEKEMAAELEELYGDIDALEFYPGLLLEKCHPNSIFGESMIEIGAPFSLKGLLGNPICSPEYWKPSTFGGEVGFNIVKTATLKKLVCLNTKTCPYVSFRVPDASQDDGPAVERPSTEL
Test: biochemical
Assay type: tissue-based, Platelet
Conditions: platelet
QUANTITY KIND: IC50

Look over these answered cases.
CC(=O)OCC(=O)[C@@]1(O)CC[C@H]2[C@@H]3CCC4=CC(=O)CC[C@]4(C)[C@H]3C(=O)C[C@@]21C [CORTISONE ACETATE] | Not Active
C=C1CC[C@H](O)C/C1=C/C=C1\CCC[C@]2(C)[C@@H]([C@H](C)CCCC(C)C)CC[C@@H]12 | Not Active
CC(=O)N1CCN(c2ccc(OCC3COC(Cn4ccnc4)(c4ccc(Cl)cc4Cl)O3)cc2)CC1 (centres undefined) | Not Active
CCCN(CCC)C(=O)C(CCC(=O)O)NC(=O)c1ccccc1 (centres undefined) [PROGLUMIDE] | Not Active
N[C@H](CSC(=S)NCc1ccccc1)C(=O)O | Not Active
Cc1cc(C)nc(NS(=O)(=O)c2ccc(N)cc2)n1 | Not Active

## Task Find the recorded IC50 belonging to "COP(=O)(OC)OC=C(Cl)Cl" and report it.
## Result Not Active

## Task // query: "O=C1CC2(CCCC2)CC(=O)N1CCCCN1CCN(c2ncccn2)CC1"
## Result Not Active

## Task // query: "CC(=O)Nc1cccc(O)c1"
## Result Not Active

## Task // query: "Cc1cc2cc3c(C)cc(=O)oc3c(C)c2o1"
## Result Not Active

## Task // query: "CCC1=C[C@@H]2CN(C1)Cc1c([nH]c3ccccc13)[C@@](C(=O)OC)(c1cc3c(cc1OC)N(C)[C@H]1[C@@](O)(C(=O)OC)[C@H](OC(C)=O)[C@]4(CC)C=CCN5CC[C@]31[C@@H]54)C2"
## Result Not Active

## Task // query: "CNC(=C[N+](=O)[O-])NCCSCc1ccc(CN(C)C)o1"
## Result Not Active
